- system.name: T1, PUF4 RNA-binding domain (Saccharomyces cerevisiae, UniProt P25339 537-888)
- T1 sequence: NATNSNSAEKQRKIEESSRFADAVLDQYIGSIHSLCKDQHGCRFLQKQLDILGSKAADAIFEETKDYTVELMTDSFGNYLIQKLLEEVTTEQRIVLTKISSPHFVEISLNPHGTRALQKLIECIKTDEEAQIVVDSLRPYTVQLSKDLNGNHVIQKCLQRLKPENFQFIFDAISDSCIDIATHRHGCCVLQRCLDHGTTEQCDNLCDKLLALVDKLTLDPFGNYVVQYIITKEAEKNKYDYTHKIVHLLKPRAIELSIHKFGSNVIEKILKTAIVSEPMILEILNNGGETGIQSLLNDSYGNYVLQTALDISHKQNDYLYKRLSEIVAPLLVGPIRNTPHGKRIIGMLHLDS
- assay.text: Mg; RNA-MaP; 20 mM Na-HEPES pH 7.4, 30 mM KOAc, 0.75 mM MgCl2, 0.1% Tween-20, 5% glycerol, 0.1 mg/mL BSA, 2 mM DTT; 25 C; 0.0125-409.6 nM protein
- assay.conditions: tags: N-His6-TEV cleaved; C-SNAP kept, Cy3B-labelled; label: tethered on chip by stalled RNA polymerase
result.type: Kd (nM)
The reply should contain only the number, in nM.

# annotated cases, reported Kd shown
[
  {
    "binder": "Ie_S4_P5E.1_K5.1_C5.1_H5.1_[+4CCCT]_A5.1_F5.1_T5.1 (ssRNA) RNA: UUUGACAACUGAUCGUUCUUUCUUGUACCCUUUAUUAUUCUUUCUCGAUCAGUUGUCUUU",
    "Kd [nM]": 6.05
  },
  {
    "binder": "Ib_S4_P4E.1_K4.1_C4.1_H4.1_A4.1_[A6T]_F4.1_[A9G]_T4.1 (ssRNA) RNA: UUUGACAACUGAUCGUUCUUUCUUGUAUUUUGUUCUUUCUCGAUCAGUUGUCUUU",
    "Kd [nM]": 8.2
  },
  {
    "binder": "UCUCUUUGUCCUAUUAUUAUCUCUU (ssRNA) [Ie_S1_P5E.1_K5.1_C5.1_H5.1_[+3CCT]_A5.1_F5.1_T5.1]",
    "Kd [nM]": 110
  }
]

Please turn your attention to the following entry.
Record request: Kd value, item UCUCUUCGUGUAUAUUAAUUCUCUU (ssRNA) [Id_ii_S1_P4E.2_K4.1_C4.2_[T-1G]_H4.1_A4.1_F4.1_T4.2_[G10A]] 1.2
